- TEST_TARGET: sigma receptors in brain tissue
- ASSAY_PROCEDURE: In vitro binding: inhibition of (+)-[3H]3-PPP binding in rat whole brain membranes
- CONDITION_LABEL: Table 2, enantiomers, 3 nM (+)-[3H]3-PPP
- Experimental: Affinity of disclosed compounds for sigma receptors in brain tissue was ascertained by the degree of inhibition of binding of the sigma site radioligand, (+)-[^3 H]3-(3-hydroxphenyl)-N-(1-propyl)piperidine ((+)-[^3 H]3-PPP) in competition experiments in vitro. […] The filter was washed twice with the diluent buffer and placed in 10 ml Aquasol-2 (NEN® DuPont Co.) for determination of bound radioactivity in a liquid scintillation counter.
ATTRIBUTE_MEASURED: IC50 (µM)

// known answers, use as guide
N[C@H]1CC[C@@H](c2ccc(Cl)c(Cl)c2)c2ccccc21 [(+)-1S, 4S 3,4-diCl NH2]    0.058
CN[C@H]1CC[C@@H](c2ccc(Cl)c(C(F)(F)F)c2)c2ccccc21 [(+)-1S, 4S 3-CF3,4-Cl NHCH3]    0.017

A: CN[C@H]1CC[C@@H](c2ccc(Cl)cc2)c2ccccc21 [(+)-1S, 4S 4-Cl NHCH3]
B: CN(C)[C@H]1CC[C@@H](c2ccc(Cl)c(Cl)c2)c2ccccc21 [(+)-1S, 4S 3,4-diCl N(CH3)2]
Q: Smaller IC50 value? Options are A and B Pick one and reply with its label.
Ans: A
(A: 0.0087 µM, B: 0.028 µM)

====

- TEST_TARGET: sigma receptors in brain tissue
- ASSAY_PROCEDURE: In vitro binding: inhibition of (+)-[3H]3-PPP binding in rat whole brain membranes
- CONDITION_LABEL: Table 1, racemates, 3 nM (+)-[3H]3-PPP
- Method: Affinity of disclosed compounds for sigma receptors in brain tissue was ascertained by the degree of inhibition of binding of the sigma site radioligand, (+)-[^3 H]3-(3-hydroxphenyl)-N-(1-propyl)piperidine ((+)-[^3 H]3-PPP) in competition experiments in vitro. […] The filter was washed twice with the diluent buffer and placed in 10 ml Aquasol-2 (NEN® DuPont Co.) for determination of bound radioactivity in a liquid scintillation counter.
pIC50: −log10 of the molar value.
ATTRIBUTE_MEASURED: pIC50

// known answers, use as guide
CN[C@H]1CC[C@H](c2ccc(C(F)(F)F)cc2)c2ccccc21 (relative stereo) [(±)-trans 4-CF3 NHCH3]    7.41
CN[C@H]1CC[C@H](c2ccc(Cl)cc2)c2ccccc21 (relative stereo) [(±)-trans 4-Cl NHCH3]    7.12
CN[C@H]1CC[C@H](c2cccc(C(F)(F)F)c2)c2ccccc21 (relative stereo) [(±)-trans 3-CF3 NHCH3]    7.80

I: CN[C@H]1CC[C@H](c2ccc(Cl)c(C(F)(F)F)c2)c2ccccc21 (relative stereo) [(±)-trans 3-CF3,4-Cl NHCH3]
II: CN[C@H]1CC[C@@H](c2ccc(Cl)c(C(F)(F)F)c2)c2ccccc21 (relative stereo) [(±)-cis 3-CF3,4-Cl NHCH3]
Q: Smaller pIC50 value? Options are I and II Pick one and reply with its label.
Ans: I

====

- TEST_TARGET: sigma receptors in brain tissue
- ASSAY_PROCEDURE: In vitro binding: inhibition of (+)-[3H]3-PPP binding in rat whole brain membranes
- CONDITION_LABEL: Table 1, racemates, 3 nM (+)-[3H]3-PPP
pIC50: −log10 of the molar value.
ATTRIBUTE_MEASURED: pIC50

CN[C@H]1CC[C@@H](c2ccc(Cl)cc2Cl)c2ccccc21 (relative stereo) [(±)-cis 2,4-diCl NHCH3]    7.54
CN[C@H]1CC[C@H](c2ccc(F)cc2)c2ccccc21 (relative stereo) [(±)-trans 4-F NHCH3]    7.18
CN[C@H]1CC[C@@H](c2ccc(Br)cc2)c2ccccc21 (relative stereo) [(±)-cis 4-Br NHCH3]    7.89
CN(C)[C@H]1CC[C@H](c2ccc(Cl)c(Cl)c2)c2ccccc21 (relative stereo) [(±)-trans 3,4-diCl N(CH3)2]    7.52
CN[C@H]1CC[C@@H](c2ccc(Cl)cc2)c2ccccc21 (relative stereo) [(±)-cis 4-Cl NHCH3]    7.48

P: CN(C)[C@H]1CC[C@@H](c2ccc(Cl)c(Cl)c2)c2ccccc21 (relative stereo) [(±)-cis 3,4-diCl N(CH3)2]
Q: CN[C@H]1CC[C@@H](c2ccc(C(F)(F)F)cc2)c2ccccc21 (relative stereo) [(±)-cis 4-CF3 NHCH3]
Q: Smaller pIC50 value? Options are P and Q Pick one and reply with its label.
Ans: P
